Read-out record for 5-HT2A receptors (Rattus norvegicus, UniProt P14842): pIC50
Answers are plain numbers, as −log10 of the molar value.

Take a look at these entries with their results.
O=c1c2ccccc2ncn1CCN1CCN(c2cccc(C(F)(F)F)c2)CC1 [Example 1]    6.24
CCc1nc2ccccc2c(=O)n1CCN1CCN(c2cccc(C(F)(F)F)c2)CC1 [Example 7]    6.15

Consider now this further compound.
Task: Notebook entry, 5-HT2A receptors (Rattus norvegicus, UniProt P14842) assay: pIC50 of O=c1[nH]c2ccccc2n1CCN1CCN(c2cccc(C(F)(F)F)c2)CC1 [Comparative Compound, reference compound] = ?
Result: 6.34

----------
Assign inhibition at 0.03 µM to each entry below.
Biological target: 5-HT1A receptors (Rattus norvegicus)
Construct: The assay tissue was rat hippocampus; from tissue; host or cells: rat hippocampus
Sequence (P19327 1-422): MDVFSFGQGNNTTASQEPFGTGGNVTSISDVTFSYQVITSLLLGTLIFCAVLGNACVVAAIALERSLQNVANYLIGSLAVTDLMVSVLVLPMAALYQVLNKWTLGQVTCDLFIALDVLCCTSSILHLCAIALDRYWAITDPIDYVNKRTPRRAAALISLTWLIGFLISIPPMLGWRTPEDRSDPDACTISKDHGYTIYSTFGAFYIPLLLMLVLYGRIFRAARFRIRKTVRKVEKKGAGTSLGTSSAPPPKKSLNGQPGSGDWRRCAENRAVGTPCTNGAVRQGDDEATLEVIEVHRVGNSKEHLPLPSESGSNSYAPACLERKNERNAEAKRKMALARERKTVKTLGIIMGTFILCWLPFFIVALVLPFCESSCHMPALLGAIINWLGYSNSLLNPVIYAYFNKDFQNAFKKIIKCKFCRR
Experiment: In vitro affinity (radioligand binding inhibition) assay, 3[H]-8-OH-DPAT, rat hippocampus
Details: 30 nM; rat hippocampus; read-out: 5-HT1A Inhibition Percentage
Numbers only, in %.

COc1ccccc1N1CCN(CCn2cnc3ccccc3c2=O)CC1    38
O=c1c2ccccc2ncn1CCN1CCN(c2ccccc2Cl)CC1    22
CCc1nc2ccccc2c(=O)n1CCN1CCN(c2ccccc2OC)CC1    17
CCOc1ccccc1N1CCN(CCn2c(CC)nc3ccccc3c2=O)CC1    26

Consider now this further molecule.
Task: I would be grateful if you could share the reported inhibition at 0.03 µM for `CCc1nc2ccccc2c(=O)n1CCN1CCN(c2cccc(C)c2C)CC1` .
Result: 26

----------
Assign inhibition at 0.3 µM to each entry below.
target: 5-HT1A receptors (Rattus norvegicus, UniProt P19327); construct: The assay tissue was rat hippocampus; from tissue; host or cells: rat hippocampus; assay: In vitro affinity (radioligand binding inhibition) assay, 3[H]-8-OH-DPAT, rat hippocampus; details: 300 nM; rat hippocampus; read-out: 5-HT1A Inhibition Percentage
Numbers only, in %.

Hi there! I need inhibition at 0.3 µM for each item below, if you can.
1. CCOc1ccccc1N1CCN(CCn2c(CC)nc3ccccc3c2=O)CC1 [Example 10]
2. CCc1nc2ccccc2c(=O)n1CCN1CCN(c2ccccc2OC)CC1 [Example 9]
3. CCc1nc2ccccc2c(=O)n1CCN1CCN(c2cccc(C)c2C)CC1 [Example 8]
4. CCc1nc2ccccc2c(=O)n1CCN1CCN(c2ccccc2Cl)CC1 [Example 11]

Result:
1. 79
2. 69
3. 77
4. 38

The measurements presented in this section are drawn from patent US9326984B2.
